Recorded pIC50, one value per entry.
target: CDK1/CyclinB (Homo sapiens, UniProt P06493); test: Determination of CDK activity (Caliper mobility shift, FAM-P8 peptide): CDK1; format: biochemical; settings: CDK1/CyclinB; read-out: CDK1 enzymatic inhibitory activity (IC50)
Sequence (P06493 whole entry): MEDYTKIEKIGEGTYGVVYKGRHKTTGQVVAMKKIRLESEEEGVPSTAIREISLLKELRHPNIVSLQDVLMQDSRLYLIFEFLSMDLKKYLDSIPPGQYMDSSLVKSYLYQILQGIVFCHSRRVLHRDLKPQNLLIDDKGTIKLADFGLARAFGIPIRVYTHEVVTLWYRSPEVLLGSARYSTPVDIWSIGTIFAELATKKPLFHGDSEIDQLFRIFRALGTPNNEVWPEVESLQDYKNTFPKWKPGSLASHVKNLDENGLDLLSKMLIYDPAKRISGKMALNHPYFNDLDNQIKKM
Sequence (P14635 whole entry partner): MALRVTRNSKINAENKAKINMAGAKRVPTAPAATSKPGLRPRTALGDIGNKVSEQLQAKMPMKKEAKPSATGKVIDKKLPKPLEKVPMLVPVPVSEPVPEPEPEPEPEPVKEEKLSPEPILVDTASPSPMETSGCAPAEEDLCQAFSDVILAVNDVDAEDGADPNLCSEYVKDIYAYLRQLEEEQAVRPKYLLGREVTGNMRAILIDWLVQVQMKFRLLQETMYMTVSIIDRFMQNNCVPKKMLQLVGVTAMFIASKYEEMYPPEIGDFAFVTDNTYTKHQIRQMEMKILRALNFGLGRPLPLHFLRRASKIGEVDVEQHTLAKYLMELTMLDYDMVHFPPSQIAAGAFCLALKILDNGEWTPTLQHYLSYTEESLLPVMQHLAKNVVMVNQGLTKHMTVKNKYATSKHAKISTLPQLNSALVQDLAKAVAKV
pIC50: −log10 of the molar value.

Reference set, count: 3
Compound: CC[C@@H](c1ccc(Nc2ncc(F)c(-c3cc(F)c4nc(C)n(C(C)C)c4c3)n2)nc1)N1CCN(C)CC1
Measured Property: pIC50
Measured: 4.00 to 5.00
//
Compound: C=C(c1ccc(Nc2ncc(F)c(-c3cc(F)c4nc(C)n(C(C)C)c4c3)n2)nc1)C1CCN(CC)CC1
Measured Property: pIC50
Measured: 6.30 to 7.00
//
Compound: Cc1nc2c(F)cc(-c3nc(Nc4ccc([C@H](O)C5CCNCC5)cn4)ncc3F)cc2n1C(C)C
Measured Property: pIC50
Measured: 6.30 to 7.00

Prompt: Bench note: what pIC50 did COCCN1CCC([C@H](C)c2ccc(Nc3ncc(F)c(-c4cc(F)c5nc(C)n(C(C)C)c5c4)n3)nc2)CC1 (single isomer, unassigned) show?
Completion: 6.00 to 6.30

Prompt: Bench note: what pIC50 did `C=C(c1ccc(Nc2ncc(F)c(-c3cc(F)c4nc(C)n(C(C)C)c4c3)n2)nc1)N1CCN(CC)CC1` show?
Completion: 6.00 to 6.30

Prompt: Bench note: what pIC50 did Cc1nc2c(F)cc(-c3nc(Nc4ccc([C@@H](C)C5CCN(C)CC5)cn4)ncc3F)cc2n1C(C)C (single isomer, unassigned) show?
Completion: 6.00 to 6.30

Prompt: Bench note: what pIC50 did `Cc1nc2c(F)cc(-c3nc(Nc4ccc([C@@H](O)C5CCNCC5)cn4)ncc3F)cc2n1C(C)C` show?
Completion: 6.30 to 7.00

Prompt: Bench note: what pIC50 did CCC(c1ccc(Nc2ncc(F)c(-c3cc(F)c4nc(C)n(C(C)C)c4c3)n2)nc1)N1CCN(CC)CC1 (single isomer, unassigned) [Example 3] show?
Completion: 4.00 to 5.00

Prompt: Bench note: what pIC50 did `Cc1nc2c(F)cc(-c3nc(Nc4ccc([C@H](C)C5CCN(CC(F)(F)F)CC5)cn4)ncc3F)cc2n1C(C)C` show?
Completion: 6.30 to 7.00

Prompt: Bench note: what pIC50 did `COCCN1CCC(=Cc2ccc(Nc3ncc(F)c(-c4cc(F)c5nc(C)n(C(C)C)c5c4)n3)nc2)CC1` show?
Completion: 6.30 to 7.00

Prompt: Bench note: what pIC50 did CCN1CCC(C(OC(C)=O)c2ccc(Nc3ncc(F)c(-c4cc(F)c5nc(C)n(C(C)C)c5c4)n3)nc2)CC1 (single isomer, unassigned) [Example 71] show?
Completion: 6.30 to 7.00

Prompt: Bench note: what pIC50 did `Cc1nc2c(F)cc(-c3nc(Nc4ccc([C@H](C)C5CCN(CCO)CC5)cn4)ncc3F)cc2n1C(C)C` show?
Completion: 6.30 to 7.00

Prompt: Bench note: what pIC50 did Cc1nc2c(F)cc(-c3nc(Nc4ccc([C@H](C)C5CCN(C(C)C)CC5)cn4)ncc3F)cc2n1C(C)C (single isomer, unassigned) show?
Completion: 6.30 to 7.00

Prompt: Bench note: what pIC50 did `CC[C@H](c1ccc(Nc2ncc(F)c(-c3cc(F)c4nc(C)n(C(C)C)c4c3)n2)nc1)C1CCN(CC)CC1` show?
Completion: 6.00 to 6.30

Prompt: Bench note: what pIC50 did CCN1CCC(C(O)c2ccc(Nc3ncc(F)c(-c4cc(F)c5nc(C)n(C(C)C)c5c4)n3)nc2)CC1 (racemic) [Example 39] show?
Completion: > 7.00

Prompt: Bench note: what pIC50 did `CC[C@H](c1ccc(Nc2ncc(F)c(-c3cc(F)c4nc(C)n(C(C)C)c4c3)n2)nc1)N1CCNCC1` show?
Completion: 4.00 to 5.00

Prompt: Bench note: what pIC50 did CCN1CCC(C(O)c2ccc(Nc3ncc(F)c(-c4cc(F)c5nc(C)n(C(C)C)c5c4)n3)nc2)CC1 (single isomer, unassigned) [Example 41] show?
Completion: 6.30 to 7.00

Prompt: Bench note: what pIC50 did CCC(c1ccc(Nc2ncc(F)c(-c3cc(F)c4nc(C)n(C(C)C)c4c3)n2)nc1)N1CCN(CC)CC1 (racemic) [Example 1] show?
Completion: 4.00 to 5.00

Prompt: Bench note: what pIC50 did CCN1CCC(C(O)c2ccc(Nc3ncc(F)c(-c4cc(F)c5nc(C)n(C(C)C)c5c4)n3)nc2)CC1 (single isomer, unassigned) [Example 40] show?
Completion: > 7.00

Prompt: Bench note: what pIC50 did `CCN1CCC(=C(C)c2ccc(Nc3ncc(F)c(-c4cc(F)c5nc(C)n(C(C)C)c5c4)n3)nc2)CC1` show?
Completion: 6.00 to 6.30

Prompt: Bench note: what pIC50 did `Cc1nc2c(F)cc(-c3nc(Nc4ccc(C=C5CCN(CCO)CC5)cn4)ncc3F)cc2n1C(C)C` show?
Completion: 6.30 to 7.00

Prompt: Bench note: what pIC50 did Cc1nc2c(F)cc(-c3nc(Nc4ccc([C@@H](C)C5CCN(C(C)C)CC5)cn4)ncc3F)cc2n1C(C)C (single isomer, unassigned) show?
Completion: 6.00 to 6.30

###

biological target: CDK6/cycD3 (Homo sapiens); test: Determination of CDK activity (Caliper mobility shift, FAM-P8 peptide): CDK6; type: biochemical; settings: CDK6/cycD3; read-out: CDK6 enzymatic inhibitory activity (IC50)
Sequence (Q00534 whole entry): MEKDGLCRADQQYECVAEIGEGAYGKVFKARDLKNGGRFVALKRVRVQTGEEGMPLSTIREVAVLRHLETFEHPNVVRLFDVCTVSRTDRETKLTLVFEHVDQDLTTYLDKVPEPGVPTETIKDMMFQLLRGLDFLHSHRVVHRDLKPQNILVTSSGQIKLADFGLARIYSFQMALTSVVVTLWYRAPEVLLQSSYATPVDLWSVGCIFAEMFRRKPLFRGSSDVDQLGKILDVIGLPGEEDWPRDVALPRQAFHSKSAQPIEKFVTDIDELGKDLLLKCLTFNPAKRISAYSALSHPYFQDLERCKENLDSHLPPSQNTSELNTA
Sequence (P30281 whole entry partner): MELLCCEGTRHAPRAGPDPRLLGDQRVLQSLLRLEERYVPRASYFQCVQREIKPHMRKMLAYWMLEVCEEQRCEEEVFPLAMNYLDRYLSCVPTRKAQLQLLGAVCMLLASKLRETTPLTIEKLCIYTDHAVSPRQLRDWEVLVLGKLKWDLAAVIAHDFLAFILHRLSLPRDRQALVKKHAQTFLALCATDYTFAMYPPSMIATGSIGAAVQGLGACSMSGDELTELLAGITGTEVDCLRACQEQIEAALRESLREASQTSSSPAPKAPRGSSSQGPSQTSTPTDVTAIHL
Measured Property: IC50

Compound: CC[C@@H](c1ccc(Nc2ncc(F)c(-c3cc(F)c4nc(C)n(C(C)C)c4c3)n2)nc1)N1CCN(C)CC1
Target Of Assay: CDK6/cycD3 (Homo sapiens)
IC50: 100 to 500 nM
//
Compound: CCN1CCC(C(OC(C)=O)c2ccc(Nc3ncc(F)c(-c4cc(F)c5nc(C)n(C(C)C)c5c4)n3)nc2)CC1 (single isomer, unassigned) [Example 72]
Target Of Assay: CDK6/cycD3 (Homo sapiens)
IC50: < 100 nM

Now turn to the next compound.
Prompt: Under CDK6/cycD3 (Homo sapiens): IC50 value of CCN1CCC(C(O)c2ccc(Nc3ncc(F)c(-c4cc(F)c5nc(C)n(C(C)C)c5c4)n3)nc2)CC1 (racemic) [Example 39] ?
Completion: < 100 nM
